- protocol_notes: clinical
- settings: human, in vivo, iv, 25 mg, tmax, plasma, melflufen HCl 25 mg i.v. over 30 min
measurement_name: tmax

* N[C@@H](Cc1ccc(N(CCCl)CCCl)cc1)C(=O)O [melphalan, reference compound] | 37 min

###

- protocol_notes: clinical
- settings: human, in vivo, iv, 15 mg, AUC0-4
measurement_name: AUC(0-t) (ng·h/mL)

* CCOC(=O)[C@H](Cc1ccc(F)cc1)NC(=O)[C@@H](N)Cc1ccc(N(CCCl)CCCl)cc1.Cl | 13.5

###

- protocol_notes: clinical
- settings: human, in vivo, iv, half-life of melflufen concentrations after end of infusion
measurement_name: half-life

• CCOC(=O)[C@H](Cc1ccc(F)cc1)NC(=O)[C@@H](N)Cc1ccc(N(CCCl)CCCl)cc1.Cl [melflufen] = 3 to 5 min
